System: 266 human PDZ domains (PDZome)
test_summary: Holdup assay (chromatographic retention, PDZome-binding profile, BI)
Parameters: key: binding intensity: 0.00 = no binding, 1.00 = maximal binding
condition_description: PDZ domain PARD3B-2
*1 amine or outer side, *2 acyl side, *3 side chain or, on linkers, in order; H or OH if unused. Where a SMILES comes first, the peptide text is derived from it. The star is where a group is joined. X1 = O=C(CCCC[C@@H]1SC[C@@H]2NC(=O)N[C@@H]21)NCCCOCCOCCOCCCN*; Suc = O=C(CCC(=O)[*:2])[*:1]
measured_property: BI
Numbers only.

CC[C@H](C)[C@H](NC(=O)[C@H](CCC(N)=O)NC(=O)[C@@H](NC(=O)[C@H](Cc1c[nH]cn1)NC(=O)[C@H](CCC(N)=O)NC(=O)[C@H](CC(=O)O)NC(=O)[C@H](CCC(=O)O)NC(=O)[C@H](CC(=O)O)NC(=O)CCC(=O)NCCCOCCOCCOCCCNC(=O)CCCC[C@@H]1SC[C@@H]2NC(=O)N[C@@H]21)[C@@H](C)O)C(=O)N[C@H](C(=O)N[C@@H](CCCNC(=N)N)C(=O)N[C@H](C(=O)O)C(C)C)[C@@H](C)O [PTEN_KR] ({X1-Suc}-DEDQHTQITRV-OH) = -0.019

Look at each compound and report its BI.
1. CC[C@H](C)[C@H](NC(=O)[C@H](CCC(N)=O)NC(=O)[C@@H](NC(=O)[C@H](Cc1c[nH]cn1)NC(=O)[C@H](CCC(N)=O)NC(=O)[C@H](CC(=O)O)NC(=O)[C@H](CCC(=O)O)NC(=O)[C@H](CC(=O)O)NC(=O)CCC(=O)NCCCOCCOCCOCCCNC(=O)CCCC[C@@H]1SC[C@@H]2NC(=O)N[C@@H]21)[C@@H](C)O)C(=O)N[C@H](C(=O)N[C@@H](CCCCN)C(=O)N[C@H](C(=O)O)C(C)C)[C@@H](C)O
2. CC[C@H](C)[C@H](NC(=O)[C@H](CCC(N)=O)NC(=O)[C@@H](NC(=O)[C@H](Cc1c[nH]cn1)NC(=O)[C@H](CCC(N)=O)NC(=O)[C@H](CC(=O)O)NC(=O)[C@H](CCC(=O)O)NC(=O)[C@H](CC(=O)O)NC(=O)CCC(=O)NCCCOCCOCCOCCCNC(=O)CCCC[C@@H]1SC[C@@H]2NC(=O)N[C@@H]21)[C@@H](C)O)C(=O)N[C@H](C(=O)N[C@@H](CCCCNC(C)=O)C(=O)N[C@H](C(=O)O)C(C)C)[C@@H](C)O
3. CC[C@H](C)[C@H](NC(=O)[C@H](CCC(N)=O)NC(=O)[C@@H](NC(=O)[C@H](Cc1c[nH]cn1)NC(=O)[C@H](CCC(N)=O)NC(=O)[C@H](CC(=O)O)NC(=O)[C@H](CCC(=O)O)NC(=O)[C@H](CC(=O)O)NC(=O)[C@H](Cc1ccccc1)NC(=O)[C@@H]1CCCN1C(=O)CCC(=O)NCCCOCCOCCOCCCNC(=O)CCCC[C@@H]1SC[C@@H]2NC(=O)N[C@@H]21)[C@@H](C)O)C(=O)N[C@H](C(=O)N[C@@H](CCCCN)C(=O)N[C@H](C(=O)O)C(C)C)[C@@H](C)O [PTEN_13] ({X1-Suc}-PFDEDQHTQITKV-OH)

Result:
[0.045, -0.04, 0.088]
